These measurements were taken from ChEMBL document CHEMBL1201862.

Test system: MCF7
Assay: NCI tumour cell line growth inhibition, 48 h
Active and inactive are the calls of the source. Cut-off read from the data, not from the text of the source: active = GI50 up to about 1.1 µM and inactive = higher.
// classify into 1 (yes) for active, 0 (no) for inactive

q: Call for entry "Cc1nc2c(O)nc3ccccc3c2o1" :
a: 0 (no)

q: Hey, what did the test say about CC(=O)OCC1OC(SC2OC(COC(C)=O)C(OC(C)=O)C(OC(C)=O)C2OC(C)=O)C(OC(C)=O)C(OC(C)=O)C1OC(C)=O (stereo not given) ?
a: 0 (no)

q: State the result this test recorded for "[N-]=[N+]=Nc1nc2ccccc2c(N=[N+]=[N-])c1Cl" .
a: 0 (no)

q: Could you kindly confirm the outcome this assay logged for CCOC(=O)N(C)CCC1CC=CC(=O)C1c1cccc(OC)c1OC (stereo not given) ?
a: 0 (no)

q: Outcome logged for CC(C)=CCC/C(C)=C/C=C/C(C)=C/C=C/C(C)=C/C=C/C=C(C)/C=C/C=C(C)/C=C/[C@H]1C(C(C)(C)O)CC[C@]1(C)O (stereo not given in full) in this assay:
a: 0 (no)

q: Test call for this molecule, please: "CCCSc1ccc2[nH]c(N3C(=O)/C(=C/c4ccc(SC)cc4)N=C3c3ccccc3)cc2c1"
a: 0 (no)

q: GET /call?item= CC1=C(C)CC2C(=O)N(c3cc(C(C)(C)C)ccc3C(C)(C)C)C(=O)C2C1 (stereo not given) returns the recorded outcome of this test.
a: 1 (yes)

q: Which outcome did this test record for the molecule "O=P(O)(O)c1ccccc1Oc1ccccc1" ?
a: 0 (no)

q: Assay outcome for C=C1C[C@@H]2CC[C@@]34CC5O[C@H]6C(O[C@H]7CC[C@H](CC(=O)O[C@@H]8[C@@H](C)[C@@H]9O[C@@H]%10C[C@]%11(C[C@@H]%12O[C@]%13(C[C@H](C)[C@@H]%14O[C@@H]%15CC(C(COC(C)=O)OC(C)=O)O[C@@H]%15C[C@@H]%14O%13)C[C@H](C)[C@@H]%12O%11)O[C@@H]%10C[C@@H]9O[C@H]8CC8O[C@@H](CC[C@@H]1O2)C[C@@H](C)C8(O)CO)O[C@@H]7[C@@H]6O3)[C@H]5O4 (stereo not given in full) : what was it?
a: 1 (yes)

q: For O=C(COc1ccc(OCC(=O)NNC2=NC(c3cc(F)c(Cl)cc3Cl)CS2)c(Cl)c1)NNC1=NC(c2cc(F)c(Cl)cc2Cl)CS1 (stereo not given) , which call appears in the assay record?
a: 0 (no)

----------
Test system: SF-539
Test: NCI tumour cell line growth inhibition, 48 h
The source made the active and inactive calls. No stated cut-off is given here; in the data, active = GI50 up to about 1.1 µM and inactive = higher.
measurement type: GI50

Below are worked cases with known answers.
q: Respond only with GI50 recorded for "Cc1nc(N)sc1C(=O)Nc1nc[nH]n1"
a: > 100 µM (inactive)

q: Please indicate GI50 recorded for CC(=O)CC12NC(=O)N(C)N=C1N(C)C(=O)N(C)C2=O (stereo not given)
a: 25.7 µM (inactive)

q: Indicate its recorded GI50; the compound in question is Cc1ccc(N2C(=O)N(c3ccc(C)cc3)C3(SC=NN3C)C2=O)cc1 (stereo not given)
a: > 100 µM (inactive)

q: Tell me GI50 reported for "NS(=O)(=O)c1ccc(NNc2c3ccccc3nc3c(C(=O)Nc4ccc(S(N)(=O)=O)cc4)cccc23)cc1"
a: 25.7 µM (inactive)

Shift focus to the following entry.
q: Specify measured GI50 for CC1CNC(c2cccc(OCc3ccc(COc4cccc(C5=NC(C)CN5)c4)cc3)c2)=N1 (stereo not given) .
a: 16.3 µM (inactive)

----------
Tested on: EKVX
Test: NCI tumour cell line growth inhibition, 48 h
The source made the active and inactive calls. Cut-off read from the data, not from the text of the source: active = GI50 up to about 1.1 µM and inactive = higher.
Respond using exactly one of the listed classes: active, inactive

Solved entries (count: 6):
q: Each compound tested received a call. Report the one for "COC(=O)CCC(=O)CC(=O)C1=NS(=O)(=O)c2nc(S(N)(=O)=O)c(Cl)cc2N1" .
a: inactive

q: Tell me the recorded outcome of this test for CC(O)CN1c2ccccc2Sc2ccc(Cl)cc21 (stereo not drawn) .
a: inactive

q: Test call, this compound: "O=C1N[C@H]2c3c(Cl)sc(Cl)c3/C(=N/O)[C@H]2O1"
a: inactive

q: Given "COC(=O)c1ccc(/C=N/c2cc(C)nn2-c2ccccc2)cc1" , state the outcome it received in this test.
a: inactive

q: Any idea what this test logged for "COc1cccc(-c2ccc3c4c2O[C@H]2C(=O)CC[C@@]5(O)[C@@H](C3)N(CC3CC3)CC[C@]425)c1" ?
a: inactive

q: Which outcome was assigned to O=C1CCCC1NC(=O)C(F)(F)F (stereo not drawn) in this test?
a: inactive

More entries:
q: Which outcome was entered for the compound Cc1ccc(S(=O)OCc2c(C)c(C)c(COS(=O)c3ccc(C)cc3)c(C)c2C)cc1 (stereo not drawn) in this test?
a: inactive

q: What outcome does the record of this test show for "CCc1cc(Cc2cc(CC)c(NC(=O)C(=O)CC(=O)c3sc(-c4cccnc4)nc3C)c(CC)c2)cc(CC)c1NC(=O)C(=O)CC(=O)c1sc(-c2cccnc2)nc1C" ?
a: inactive

q: Assay result, entry C=C1C[C@@H]2CC[C@@]34CC5O[C@H]6C(O[C@H]7CC[C@H](CC(=O)O[C@@H]8[C@@H](C)[C@@H]9O[C@@H]%10C[C@]%11(C[C@@H]%12O[C@]%13(C[C@H](C)[C@@H]%14O[C@@H]%15CC(C(COC(C)=O)OC(C)=O)O[C@@H]%15C[C@@H]%14O%13)C[C@H](C)[C@@H]%12O%11)O[C@@H]%10C[C@@H]9O[C@H]8CC8O[C@@H](CC[C@@H]1O2)C[C@@H](C)C8(O)CO)O[C@@H]7[C@@H]6O3)[C@H]5O4 (stereo partly drawn) — outcome?
a: active

----------
Tested on: SK-MEL-5
Experiment: NCI tumour cell line growth inhibition, 48 h
Activity calls are given as the source filed them. Cut-off read from the data, not from the text of the source: active = GI50 up to about 1.1 µM and inactive = higher.
This listing pairs molecules with measured GI50.

q: Hello, please tell me recorded GI50 for this one: "N=C(N)N/N=C/c1c(-c2ccc(Cl)c([N+](=O)[O-])c2)nc2sc(Cl)cn12"
a: 4.07 µM (inactive)

q: Look up GI50 of CCN(CC)C1Oc2cc3c(cc2C(c2ccc(OC)cc2)C1C)OCO3 (configuration not stated) and report it.
a: 17.3 µM (inactive)

q: Consider the molecule "N#Cc1ccc([N+](=O)[O-])cc1NC(N)=S" . State its measured GI50.
a: > 100 µM (inactive)

q: Identify measured GI50 associated with "O=c1oc2ccc([N+](=O)[O-])cc2cc1-c1csc(-c2ccccc2)n1"
a: > 100 µM (inactive)

q: Given "Cc1cccc(/C=N/NC(=S)NC2CCCCC2)n1" , respond with its GI50.
a: 29.9 µM (inactive)

Further cases:
q: Indicate the recorded GI50 value for this molecule: "CCOC(=O)c1nc2ccc(Cl)cc2c2c1Cc1ccccc1-2"
a: > 100 µM (inactive)

q: Identify the reported GI50 for the following entry. COc1ccc(C#CCC(OC2OC(CO)C(O)C(O)C2O)C(O)c2ccc(OC)c(OC)c2)cc1OC (configuration not stated)
a: > 100 µM (inactive)

q: Look up and state reported GI50 for "NS(=O)(=O)c1ccc(NNc2c3ccccc3nc3c(C(=O)Nc4ccc(S(N)(=O)=O)cc4)cccc23)cc1"
a: 34.9 µM (inactive)

q: Answer with reported GI50 of "Oc1ccc(-c2nc3cc(F)ccc3s2)cc1"
a: 19.5 µM (inactive)

q: Specify measured GI50 for C#CCOC(=O)C(N)CCCNC(=N)N (configuration not stated) .
a: > 100 µM (inactive)

q: Look up GI50 of COc1cc2c3cc1Oc1c(O)c(OC)cc4c1C(Cc1ccc(O)c(c1)Oc1ccc(cc1)CC3N(C)CC2)N(C)CC4 (configuration not stated) and report it.
a: 18.5 µM (inactive)

q: Answer with the recorded GI50 of "CCN1c2nc3ccccc3nc2N(CC)c2nc3ccccc3nc21" only.
a: 41.2 µM (inactive)

q: Tell us which GI50 value is on record for "O=C1NC(=S)NC(=O)C1=Cc1ccc(-c2ccccc2)cc1"
a: > 100 µM (inactive)

q: Give the measured GI50 for CC(=O)OCC1OC(SC2OC(COC(C)=O)C(OC(C)=O)C(OC(C)=O)C2OC(C)=O)C(OC(C)=O)C(OC(C)=O)C1OC(C)=O (configuration not stated)
a: > 100 µM (inactive)

q: Look up GI50 of "O=NNc1cnc(O)nc1O" and report it.
a: > 100 µM (inactive)

q: Provide one value: measured GI50 of CC(=O)OCC1OC(NC(=S)Nn2c(=O)[nH]c3ccccc3c2=O)C(OC(C)=O)C(OC(C)=O)C1OC(C)=O (configuration not stated)
a: > 100 µM (inactive)

q: Supply reported GI50 belonging to this molecule: "C#CCOCn1cnc2ncnc(Cl)c21"
a: > 100 µM (inactive)
